Where do the numbers come from? From PubChem BioAssay (NCI).

System: A498 renal
protocol details: NCI tumour cell line growth inhibition, 48 h
Parameter TGI: see the listing below.

[
  {
    "structure notation": "CCCCOC(=O)/C(CC(=O)C=C(C)C)=N\\NS(=O)(=O)c1ccc(C)cc1",
    "result comparator": ">",
    "TGI [µM]": 100
  },
  {
    "structure notation": "Oc1cn(-c2ccc(Cl)cc2)nc1-c1nnc(Nc2ccccc2)o1",
    "result comparator": "=",
    "TGI [µM]": 29.5
  },
  {
    "structure notation": "CCn1c(=O)c2c(=O)[nH][nH]c2c2ccccc21",
    "result comparator": ">",
    "TGI [µM]": 100
  },
  {
    "structure notation": "CCOC(=O)CCc1c(C(=O)OCC)[nH]c(/C=C2/NC(=O)C(C)=C2CC)c1C",
    "result comparator": "=",
    "TGI [µM]": 77.6
  },
  {
    "structure notation": "CN(C)c1cccc2[nH]c(-c3[nH]ncc3Nc3ccnc(N)n3)nc12",
    "result comparator": "=",
    "TGI [µM]": 0.037
  }
]
